# Tested on: IGROV1 ovarian
# Measurement Description: NCI tumour cell line growth inhibition, 48 h
Observation Type: TGI

Compound	Result
CC(C)[O-].CC(C)[O-].O=c1cccccc1[O-].O=c1cccccc1[O-].[Ti+4]	> 100 µM
COc1ccc(C2Oc3c(c(O)cc4c3[C@H](c3ccc(O)cc3O)[C@H](O)C(c3ccc(O)c(O)c3)O4)C[C@@H]2O)cc1O (stereo not given in full)	> 100 µM
COc1ccc(OC)c2sc(N3C(=O)/C(=C/c4cccc([N+](=O)[O-])c4)N=C3c3ccccc3)nc12	> 100 µM
C=CC1=C(C)C2=NC1=CC1=NC(=CC3=C(C)C4=C(O)[C@H](C(=O)OC)C(=C5NC(=C2)[C@@H](C)[C@@H]5CCC(=O)O)C4=N3)C(CC)=C1C	> 23.8 µM
COc1cc(C2c3cc4c(cc3[C@@H](Nc3ccc5c(c3)OCO5)C3COC(=O)[C@H]23)OCO4)cc(OC)c1O (stereo not given in full)	35 µM
COc1c(O)c(OC)c2oc(-c3ccc(O)cc3)c(OC)c(=O)c2c1O	51.4 µM
OCc1ccc(N2CCOCC2)cc1Cl	32.6 µM
O=C(NN1C(=O)CSC1c1cccc(F)c1)c1ccncc1 (stereo not given)	> 100 µM
Cc1cccc(C)c1N1C(=O)C(=O)C(c2nc3ccccc3s2)C(=Nc2cccc3c(=O)[nH][nH]c(=O)c23)C1=O (stereo not given)	> 100 µM
O=C(O)c1ccccc1C(=O)c1ccc2c(c1)Cc1ccccc1-2	> 100 µM
CCN1C(=O)C(=C/C=C/c2ccc(N(CC)CC)cc2)C(=O)N(CC)C1=S	> 100 µM
CN(C)c1cccc2c1C(=O)C=CC21c2ccc(N(C)C)c3c(N(C)C)ccc(c23)C(c2ccccc2)C1c1ccccc1 (stereo not given)	29.3 µM
Nc1nc(Nc2ccccc2)sc1C(=O)c1ccco1	60.7 µM
O=S1(=O)c2cnccc2NC(=NCc2ccccc2)N1c1ccccc1	> 100 µM
COc1ccc(/C=N/n2c(C)nc3c(sc(=S)n3-c3ccccc3)c2=O)cc1	> 100 µM
CCOC(=O)c1sc2ncnc(N)c2c1C	> 100 µM
O=C(Cl)C1=C(c2ccccc2)C1c1ccccc1 (stereo not given)	> 100 µM
CC1(C)CC(=O)C(CC2C(=O)c3ccccc3C2=O)C(=O)C1	> 100 µM
COc1ccc(-c2cnoc2-c2cc(OC)c3c(c2)OCCO3)cc1	> 100 µM
C=C1C2Oc3ccccc3C1N(c1ccccc1)O2 (stereo not given)	> 100 µM

---

# System: MDA-MB-231 breast
# Measurement Description: NCI tumour cell line growth inhibition, 48 h
Known TGI of a selection of compounds
Observation Type: TGI

Compound	Result
CN1c2ccccc2SC2C(c3ccccc3)=NOC21 (stereo not given)	> 100 µM
COc1cc(C(O)c2ccc3c(c2)OCO3)cc(OC)c1OC (stereo not given)	> 100 µM
CC(C)C(N)C(=O)NC(CCC(=O)NCCCCC(N)C(=O)NCCCNc1ccc([N+](=O)[O-])c2[nH]c3ccccc3c(=O)c12)C(N)=O (stereo not given)	> 100 µM
CC1=NNC(=O)C1C1CC(c2c[nH]c3ccccc23)=NN=C1Cl (stereo not given)	> 100 µM
O=C(NCCN1CCNCC1)c1ccc(Nc2nc3ccccc3c3occc23)cc1	25.8 µM
O=S1SC(=S)C2C=CC=CC21 (stereo not given)	> 100 µM
COc1nc2c(N3CCCC3)nc(N3CCNCC3)nc2nc1NCc1ccccc1	3.72 µM
CC(C)[Si](OC/C(=C/COC(C)(C)C)[C@H]1CC=C(C(=O)c2ccccc2N2CN(C)C(=O)N(C)C2)C1)(C(C)C)C(C)C	26.6 µM
CC1(C)OC2COC3([C@@H]4OC(C)(C)O[C@@H]4CO)OC(C)(C)OC3C2O1 (stereo not given in full)	> 100 µM
C(=C\c1ccccc1)/COc1ccccc1C(N1CCOCC1)n1nc2ccccc2n1 (stereo not given)	15 µM
Cc1cc(C)c(/C=C(\C(=C/c2c(C)cc(C)cc2C)[N+](=O)[O-])[N+](=O)[O-])c(C)c1	> 100 µM
Clc1ccc2c(c1)N(c1ncnc3ccc(-c4cnc5[nH]ncc5c4)cc13)CC2	> 100 µM
C/C(=C\CO)CC/C=C(\C)CNc1ccc([N+](=O)[O-])cc1	> 100 µM
Cc1ccc(NC(=O)/C(Cc2nc3ccc([N+](=O)[O-])cc3[nH]c2=O)=N\NC(=O)C[n+]2ccccc2)c(C)c1	86.4 µM
O=C1C2=Nc3ccccc3C(O)(C(=O)O)N2c2ccccc21 (stereo not given)	35.4 µM
C[C@]12CC[C@@H]3c4ccc(O)cc4CC[C@H]3[C@@H]1C/C(=C\c1ccc(C#N)cc1)C2=O	> 100 µM
COc1cccc(COc2cc(-n3cnc4ccccc43)sc2C(N)=O)c1	> 25 µM
CC(C)N1CN(c2ccccc2)C2(CCN(CCCC(=O)c3ccc(F)cc3)CC2)C1=O	26.6 µM
O=C1c2cccc3cccc(c23)C(=O)N1O	> 100 µM
CN1N=C(c2ccncc2)OC1c1ccccc1F (stereo not given)	> 100 µM
